- System: Nucleic Acid
- Test Summary: Binding affinity to human telomeric DNA G-quadruplex assessed as change in melting temperature at 5 uM by FRET assay
- Assay type: nucleic-acid assay
Quick reference: ΔTm of the listed items.
The answer is to be given in °C; state only the numeric part.

Worked cases, answers included:
CN(C)c1ccc(Nc2c3ccc(NC(=O)CCN4CCCC4)cc3nc3cc(NC(=O)CCN4CCCC4)ccc23)cc1 : 34.7
C[N+](C)(C)CCC(=O)NCc1cccc2cc3cccc(CNC(=O)CC[N+](C)(C)C)c3nc12 : 5.7
O=C(CN1CCCC1)NCc1cccc2cc3cccc(CNC(=O)CN4CCCC4)c3nc12 : 1.4
CN(C)CCNCc1cccc2cc3cccc(CNCCN(C)C)c3nc12 : 4
CN(C)CCCNCc1cccc2cc3cccc(CNCCCN(C)C)c3nc12 : 6.7

Report ΔTm under test system Nucleic Acid for O=C(CCCN1CCCC1)NCc1cccc2cc3cccc(CNC(=O)CCCN4CCCC4)c3nc12 .
8.8

// output ΔTm; input C[N+](C)(C)CC(=O)NCc1cccc2cc3cccc(CNC(=O)C[N+](C)(C)C)c3nc12 ; system Nucleic Acid
5.9

Print Nucleic Acid ΔTm for CN1CCN(CCC(=O)NCc2cccc3cc4cccc(CNC(=O)CCN5CCN(C)CC5)c4nc23)CC1 .
0.5

Provide ΔTm, system Nucleic Acid, entry C[N+]1(CC(=O)NCc2cccc3cc4cccc(CNC(=O)C[N+]5(C)CCCC5)c4nc23)CCCC1
4.3

State recorded ΔTm with Nucleic Acid, entry O=C(CCN1CCCCC1)NCc1cccc2cc3cccc(CNC(=O)CCN4CCCCC4)c3nc12 , no comment.
6.6

Given O=C(CCN1CCCC1)NCc1cccc2cc3cccc(CNC(=O)CCN4CCCC4)c3nc12 , report its ΔTm on Nucleic Acid.
2.8

Give ΔTm; test system Nucleic Acid; molecule O=C(CCCN1CCCCC1)NCc1cccc2cc3cccc(CNC(=O)CCCN4CCCCC4)c3nc12
3.7

Provide ΔTm, system Nucleic Acid, entry C[N+]1(CCC(=O)NCc2cccc3cc4cccc(CNC(=O)CC[N+]5(C)CCCC5)c4nc23)CCCC1
6.8

Report ΔTm on Nucleic Acid for this entry: CN(C)CCC(=O)NCc1cccc2cc3cccc(CNC(=O)CCN(C)C)c3nc12
5

Tell me ΔTm of C[N+]1(CC(=O)NCc2cccc3cc4cccc(CNC(=O)C[N+]5(C)CCCCC5)c4nc23)CCCCC1 when tested on Nucleic Acid.
6.8

With Nucleic Acid as the test system, provide measured ΔTm for this molecule: CCN(CC)CCC(=O)NCc1cccc2cc3cccc(CNC(=O)CCN(CC)CC)c3nc12
7.2

Give reported ΔTm for O=C(CN1CCCCC1)NCc1cccc2cc3cccc(CNC(=O)CN4CCCCC4)c3nc12 (Nucleic Acid)
0.6
